- System: SW-620 colon
- run_description: NCI-60 one-dose screen, 48 h
- cond: 10 µM unless noted
Compounds without any hit were thinned out: in the full panel of roughly 83,000, 20% have a hit. The source made the active and inactive calls. The calls were made as follows: active = growth percent below 10; inactive = the rest.
One label from this list, please: T for active, F for inactive

>>> label("CC(=O)Oc1ccccc1C(=O)Nc1cc(C(C)C)ccc1C")
"F"
>>> label("CC(O)C(NC(=O)C1CCCN1C(=O)CNC(=O)C1CC(=O)NCC(=O)NC(Cc2c[nH]c3ccccc23)C(=O)NC(Cc2ccc(O)cc2)C(=O)NCC(=O)NC(CO)C(=O)NC(CCC(N)=O)C(=O)NC(Cc2c[nH]c3ccccc23)C(=O)N1)C(=O)NCC(=O)NC(CCC(N)=O)C(=O)NC(CCCNC(=N)N)C(=O)NC(CC(=O)O)C(=O)O (stereo not drawn)")
"F"
>>> label("C/C(=C(/c1ccc(Cl)cc1)c1ccc(OCCN)cc1)c1ccc(C)cc1")
"F"
>>> label("OC1CCN(CCCOc2c3ccc(Cl)cc3nc3c2oc2ccc(Cl)cc23)CC1")
"T"
>>> label("CCOC(=O)c1c(Nc2ccccc2)nn2c(-c3ccco3)c(C#N)cnc12")
"F"

Any idea what this test logged for Clc1ccc(Cc2nnc3sc(-c4cccnc4)nn23)cc1 ? F

Could you do the same for CCCSc1nc(Nc2ccc(/C(C)=N\NC(N)=S)cc2)c(C#N)c(-c2ccc(OC)cc2)n1 , please? F

Lookup CN(C)c1ccc(-c2c(NC(C)(C)C)nc3c(OCCc4ccccc4)cccn23)cc1 F

----------
- Tested on: DU-145 prostate
- run_description: NCI-60 one-dose screen, 48 h (100 = growth as untreated, 0 = no growth, -100 = all killed)
- cond: 10 µM unless noted
Compounds without any hit were thinned out: in the full panel of roughly 83,000, 20% have a hit.
Reported growth values are given for each entry in this list.
Give a bare numeral; the unit % is implied.

>>> number("O=C(c1ccc(O)cc1)C1[C@H](c2ccc(Cl)cc2)[C@@H](c2ccccc2)NC12C(=O)Nc1ccc(Cl)cc12 (some centres undefined)")
52.4
>>> number("N#Cc1nc(-c2ccccc2)oc1N1CCC(CO)C1 (centres undefined)")
104
>>> number("OC1CCN(CCCOc2c3ccc(Cl)cc3nc3c2oc2ccc(Cl)cc23)CC1")
-97.5
>>> number("C[C@@H](Nc1c(C#N)cnc2ccc(-c3cnc(N)nc3)cc12)c1ccccc1")
12.8

Query the reported growth for DU-145 prostate; item: O=C(N/N=C/c1ccc([N+](=O)[O-])s1)c1[nH]c2ccc(Br)cc2c1-c1ccccc1 20.4

Next compound: Clc1ccc(-c2cn3cc(Cc4ccc(Cl)c(Cl)c4)sc3n2)cc1 69.6

And what about the compound O=C(Oc1ccc2ccc(=O)oc2c1)c1ccc(Cl)cc1 ? 108

// repeat for CN1CCN(Cc2ccc(NC(=O)c3cncc(C#Cc4cnc5ccc(N6CCSCC6)nn45)c3)cc2C(F)(F)F)CC1 and report -83.2

Cool, now O=C1NC(=C(Cl)Cl)/C(=N/S(=O)(=O)N2CCCCC2CC2(C(F)(F)F)N=N2)N1 (centres undefined) 74

Would you kindly repeat that for O=C(O)CCCCCN1C(=O)/C(=C/c2ccc(O)c(O)c2)SC1=S ? 103

----------
- Test system: NCI-H322M lung
- run_description: NCI-60 one-dose screen, 48 h (100 = growth as untreated, 0 = no growth, -100 = all killed)
- cond: 10 µM unless noted
This is part of a sample that, as a whole, favours compounds with a hit. Of some 83,000 tested, about 20% had one in any assay. Active and inactive are the calls of the source. The calls were made as follows: active = growth percent below 10; inactive = the rest.
measured_property: growth

Field: example entries. Status: answers known.
>>> result("COc1cc(OC)c(S(=O)(=O)NNC(=O)c2ccncc2)cc1C(=O)/C=C/c1ccc(C)cc1")
"62.3% (inactive)"
>>> result("O=C1Nc2cc(Cl)ccc2/C1=C\\c1ccc(OCc2ccc(Br)cc2F)cc1")
"-23.8% (active)"
>>> result("Cc1ccc2ccc3ccc(C)nc3c2n1.Cc1ccc2ccc3ccc(C)nc3c2n1.Oc1c(Cl)cc(Cl)c2ccc(CN3CCCCC3)nc12.[Ru]")
"-83.4% (active)"
>>> result("NC(=O)c1c(NC(=O)c2ccc(C3CCCCC3)cc2)sc2c1CCC(=O)C2")
"97.8% (inactive)"
>>> result("Clc1ccc2oc3c(NCCCn4ccnc4)c4ccccc4nc3c2c1")
"41.5% (inactive)"

Param item = COc1ccc(/C=C2\SC(=Nc3cc(C)[nH]n3)NC2=O)cc1 ; retrieve measured growth. 91.9% (inactive)

And for O=C(N/N=C/c1ccc(Br)s1)c1[nH]c2ccc(Br)cc2c1-c1ccccc1 ? 48.2% (inactive)

And for N[C@@H](Cc1cn(-c2ccnc3ccccc23)nn1)C(=O)O ? 102% (inactive)

Continue with COc1cc2nc(-c3ccc(Cl)cc3)cc(OCCCNCC3CCCO3)c2cc1OC (configuration not stated) 66.7% (inactive)
